- tested-target: yeast Gal4-DNA binding domain fused to the ligand binding domain of human RORγ (Homo sapiens, UniProt P51449)
- Construct: host or cells: HEK293t
- method-description: RORγ Reporter Assay (Gal4)
- Type: cell-based
- recorded-conditions: RORγ Reporter Assay (Gal4) at 0.1 μM; values given as lower bounds of ranges
readout-label: Gal4 activity range @ 0.1 μM (% inhibition)

Some solved cases for reference:
[
  {
    "compound": "CS(=O)(=O)N[C@H]1CC[C@H](CNc2ncnc(N3CCOC[C@@H]3c3ccc(OC(F)(F)F)cc3)c2F)CC1",
    "obs-value": ">80 % inhibition"
  },
  {
    "compound": "Cc1ccc(CNc2ncnc(N3CCC[C@@H]3c3ccc(C(F)(F)F)cc3F)c2F)cn1",
    "obs-value": ">50 % inhibition"
  },
  {
    "compound": "CS(=O)(=O)N1CCC(F)(CNc2ncnc(N3CCOC[C@@H]3c3ccc(C(F)(F)F)cc3)c2F)CC1",
    "obs-value": ">80 % inhibition"
  },
  {
    "compound": "COC1CCCCC1CNc1ncnc(N2CCC[C@@H]2c2ccc(C(F)(F)F)cc2)c1F (stereo partly shown)",
    "obs-value": ">50 % inhibition"
  },
  {
    "compound": "O=S1(=O)CCC(CNc2ncnc(N3CCC[C@@H]3c3ccc(C(F)(F)F)cc3)c2F)CC1",
    "obs-value": ">20 % inhibition"
  }
]

Entry under test: Cc1ccc(CNc2ncnc(N3CCCC3c3ccc(OC(F)(F)F)cc3)c2F)cn1 (stereo not shown) . Its Gal4 activity range @ 0.1 μM (% inhibition) was >20 % inhibition

// Gal4 activity range @ 0.1 μM (% inhibition) lookup, compound = Cc1ccc(CNc2ncnc(N3CCCC3(C)c3ccc(C(F)(F)F)cc3)c2F)cn1 (stereo not shown) , result: >20 % inhibition

GET /value?item= Cc1ccc(CNc2ncnc(N3CC(C)CC3c3ccc(C(F)(F)F)cc3)c2F)cn1 (stereo not shown) &field=Gal4 activity range @ 0.1 μM (% inhibition) returns >0 % inhibition

Record summary for "NC(=O)Cc1ccc(CNc2ncnc(N3CCOC[C@@H]3c3ccc(OC(F)(F)F)cc3F)c2F)cc1" : reported Gal4 activity range @ 0.1 μM (% inhibition) = >80 % inhibition

Entry "Fc1c(NCc2ccsc2)ncnc1N1CCC[C@@H]1c1ccc(C(F)(F)F)cc1" ; Gal4 activity range @ 0.1 μM (% inhibition) = >50 % inhibition

So, CC1CCC(CNc2ncnc(N3CCCC3c3ccc(C(F)(F)F)cc3)c2F)CC1 (stereo not shown) ? Its Gal4 activity range @ 0.1 μM (% inhibition) was >0 % inhibition

Gal4 activity range @ 0.1 μM (% inhibition) recorded for this compound, "OC1(CNc2ncnc(N3CCC[C@@H]3c3ccc(C(F)(F)F)cc3)c2F)CCCCCC1" , is >0 % inhibition

Memo: Cc1ccc(C2CCCN2c2ncnc(NCc3ccc(CC(N)=O)cc3)c2F)o1 (stereo not shown) , reported Gal4 activity range @ 0.1 μM (% inhibition): >20 % inhibition

# compound "Cc1ccc(CNc2ncnc(-n3nncc3-c3ccc(C(F)(F)F)cc3)c2F)cn1" ; its Gal4 activity range @ 0.1 μM (% inhibition) = >0 % inhibition

Lab book: Gal4 activity range @ 0.1 μM (% inhibition) of NC(=O)Cc1ccc(CNc2ncnc(N3CCC3c3ccc(C(F)(F)F)cc3)c2F)cc1 (stereo not shown) noted as >20 % inhibition

Per the records, this compound ( "NC(=O)Cc1ccc(Cn2ccc3c(N4CCC[C@@H]4c4ccc(C(F)(F)F)cc4)ncnc32)cc1" ) has Gal4 activity range @ 0.1 μM (% inhibition) equal to >80 % inhibition

----------
We begin with a simple list: items and their reported Gal4 activity range @ 0.1 μM (% inhibition).
- tested-target: yeast Gal4-DNA binding domain fused to the ligand binding domain of human RORγ (Homo sapiens, UniProt P51449)
- Construct: host or cells: HEK293t
- method-description: RORγ Reporter Assay (Gal4)
- Type: cell-based
- recorded-conditions: RORγ Reporter Assay (Gal4) at 0.1 μM; values given as lower bounds of ranges
- Experimental: The activity of the compounds was evaluated using a Fluorescence Polarization (FP) Assay and, in most cases, a Th17 Assay and/or RORγ Reporter assay (also referred to as Gal4 assay). The FP assay is an in vitro assay monitoring binding within the ligand binding pocket. The RORγ and the Th17 assays are both cell-based assays monitoring functional activity of the compound assayed. […]

Guide cases for Gal4 activity range @ 0.1 μM (% inhibition), answers given:
[
  {
    "compound": "COc1ccc(C2CCCN2c2ncnc(NCc3ccc(C)nc3)c2F)cc1 (stereo not shown)",
    "obs-value": ">0 % inhibition"
  },
  {
    "compound": "NC(=O)Cc1ccc(CNc2ncnc(N3CCCC3c3ccccc3)c2F)cc1 (stereo not shown)",
    "obs-value": ">20 % inhibition"
  },
  {
    "compound": "NC(=O)Cc1ccc(CNc2ncnc(N3CCCC3c3ccc(O)cc3)c2F)cc1 (stereo not shown)",
    "obs-value": ">20 % inhibition"
  }
]

In the following, a different compound is considered.
What the record says about "Fc1c(NCc2ccc(Cc3nnn[nH]3)cc2)ncnc1N1CCOC[C@@H]1c1ccc(OC(F)(F)F)cc1" : Gal4 activity range @ 0.1 μM (% inhibition) is >20 % inhibition

----------
- tested-target: yeast Gal4-DNA binding domain fused to the ligand binding domain of human RORγ (Homo sapiens)
- Construct: host or cells: HEK293t
- Sequence (P51449 269-508 limits assumed): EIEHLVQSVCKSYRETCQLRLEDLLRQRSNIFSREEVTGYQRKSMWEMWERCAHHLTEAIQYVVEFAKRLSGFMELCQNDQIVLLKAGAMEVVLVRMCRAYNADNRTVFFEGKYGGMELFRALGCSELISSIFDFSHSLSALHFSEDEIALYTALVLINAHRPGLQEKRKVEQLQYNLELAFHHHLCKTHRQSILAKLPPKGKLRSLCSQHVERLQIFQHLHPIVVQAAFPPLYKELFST
- method-description: RORγ Reporter Assay (Gal4)
- Type: cell-based
- recorded-conditions: RORγ Reporter Assay (Gal4) at 0.1 μM; values given as lower bounds of ranges
readout-label: Gal4 activity range @ 0.1 μM (% inhibition)

Recorded Gal4 activity range @ 0.1 μM (% inhibition), per entry:
[
  {
    "molecule": "O=S(=O)(N1CCC(CNc2ncnc(N3CCOC[C@@H]3c3ccc(C(F)(F)F)cc3)c2F)CC1)C(F)(F)F",
    "obs-value": ">50 % inhibition"
  },
  {
    "molecule": "OC1(CNc2ncnc(N3CCOC[C@@H]3c3ccc(C(F)(F)F)cc3)c2F)CCOC1 (some centres unmarked)",
    "obs-value": ">0 % inhibition"
  },
  {
    "molecule": "CC1CC(c2ccc(C(F)(F)F)cc2)N(c2ncnc(NCc3ccc(CC(N)=O)cc3)c2F)C1 (centres unmarked)",
    "obs-value": ">20 % inhibition"
  },
  {
    "molecule": "CS(=O)(=O)CC1(CNc2ncnc(N3CC(F)(F)CC3c3ccc(C(F)(F)F)cc3)c2F)CCOCC1 (centres unmarked)",
    "obs-value": ">50 % inhibition"
  }
]

The molecule "CNC(=O)C1(CNc2ncnc(N3CCOC[C@@H]3c3ccc(C(F)(F)F)cc3)c2F)CCOCC1" showed Gal4 activity range @ 0.1 μM (% inhibition) equal to >20 % inhibition

// CC1(CNc2ncnc(N3CCCC3c3ccc(C(F)(F)F)cc3)c2F)CCC1 (centres unmarked) : Gal4 activity range @ 0.1 μM (% inhibition) value = >0 % inhibition

// Gal4 activity range @ 0.1 μM (% inhibition) value for "O=C(O)Cc1ccc(CNc2ncnc(N3CCC[C@@H]3c3ccc(C(F)(F)F)cc3)c2F)cc1" : >50 % inhibition

COc1cccc(C2CCCN2c2ncnc(NCc3ccc(CC(N)=O)cc3)c2F)c1 (centres unmarked) yielded Gal4 activity range @ 0.1 μM (% inhibition) of >20 % inhibition

----------
- tested-target: yeast Gal4-DNA binding domain fused to the ligand binding domain of human RORγ (Homo sapiens, UniProt P51449)
- Construct: host or cells: HEK293t
- method-description: RORγ Reporter Assay (Gal4)
- Assay type: cell-based
- recorded-conditions: RORγ Reporter Assay (Gal4) at 1 μM; values given as lower bounds of ranges
Overview of reported Gal4 activity range @ 1 μM (% inhibition) across a group of molecules:

Consider Fc1c(NCc2ccc(N3CCOCC3)cc2)ncnc1N1CCCC1c1ccc(C(F)(F)F)cc1 (centres unmarked) [Example 56] . Its measured Gal4 activity range @ 1 μM (% inhibition) is >20 % inhibition

Notebook: CS(=O)(=O)CC1(CNc2ncnc(N3CC(F)(F)CC3c3ccc(C(F)(F)F)cc3)c2F)CCOCC1 (centres unmarked) [Example 260] , Gal4 activity range @ 1 μM (% inhibition) read as >80 % inhibition

get_value(item= CC(=O)N1CCC(F)(CNc2ncnc(N3CCOC[C@@H]3c3ccc(C(F)(F)F)cc3)c2F)CC1 [Example 262] , readout=Gal4 activity range @ 1 μM (% inhibition)) returns >50 % inhibition

// sample Cc1nc(CNc2ncnc(N3CCCC3c3ccc(C(F)(F)F)cc3)c2F)ccc1C(C)O (centres unmarked) [Example 112] , its Gal4 activity range @ 1 μM (% inhibition) was >20 % inhibition

Field Gal4 activity range @ 1 μM (% inhibition) (entry Cc1ccc(C2CCCN2c2ncnc(NCc3ccc(CC(N)=O)cc3)c2F)cc1 (centres unmarked) [Example 302] ) reads >50 % inhibition

Value of measured Gal4 activity range @ 1 μM (% inhibition) for the entry O=S1(=O)CCC(CNc2ncnc(N3CCC[C@@H]3c3ccc(C(F)(F)F)cc3)c2F)CC1 [Example 222] : >80 % inhibition

Consider CC(C)c1ccc(C2CCCN2c2ncnc(NCc3ccc(CC(N)=O)cc3)c2F)cc1 (centres unmarked) [Example 303] . Its measured Gal4 activity range @ 1 μM (% inhibition) is >80 % inhibition

Lookup result for NC(=O)Cc1ccc(CNc2ncnc(N3CCCC3c3ccc(C(F)(F)F)cc3O)c2F)cc1 (centres unmarked) [Example 323] ; measured Gal4 activity range @ 1 μM (% inhibition): >80 % inhibition
